# credit: ChEMBL document CHEMBL5390320

- Procedure summary: Lipophilicity, log D of the compound in octanol and sodium phosphate buffer at pH 7.4 incubated for 3 hrs under shaking condition by shake flask method based LC-MS/MS analysis
- Assay type: physicochemical
Measured quantity: logD at 3 h
In your answer, state the number alone without any accompanying words.

State the recorded logD at 3 h for this entry: C[C@@H]1CN(Cc2ccccc2C(=O)NC2N=C(c3ccccc3)c3ccccc3NC2=O)CCO1 (mixture of isomers)
4.1

State the recorded logD at 3 h for this entry: Cn1ncc2c1CN(Cc1ccccc1C(=O)NC1N=C(c3ccccc3)c3ccccc3NC1=O)C2 (racemic)
3.8

State the recorded logD at 3 h for this entry: O=C(NC1N=C(c2ccccc2)c2ccccc2NC1=O)c1ccccc1CN1CCOCC1 (racemic)
3.8

State the recorded logD at 3 h for this entry: O=C(NC1N=C(c2ccccc2)c2ccccc2NC1=O)c1cnccc1CN1CCOCC1 (racemic)
2.7

State the recorded logD at 3 h for this entry: O=C(NC1N=C(c2ccc[nH]c2=O)c2ccccc2NC1=O)c1ccccc1CN1CCOCC1 (racemic)
1.2

State the recorded logD at 3 h for this entry: C[C@@H]1COCCN1Cc1ccccc1C(=O)NC1N=C(c2ccccc2)c2ccccc2NC1=O (mixture of isomers)
3.9

State the recorded logD at 3 h for this entry: O=C(NC1N=C(c2ccccc2)c2ccccc2NC1=O)c1ccccc1CN1CCn2nncc2C1 (racemic)
2.9

State the recorded logD at 3 h for this entry: C[C@H]1CN(Cc2ccccc2C(=O)N[C@H]2N=C(c3ccccc3)c3ccc(C(=O)N4CCN(C)C(=O)C4)cc3NC2=O)CCO1
2.5

State the recorded logD at 3 h for this entry: O=C(NC1N=C(c2ccccc2)c2ccccc2NC1=O)c1ccoc1CN1CCOCC1 (racemic)
3.1

State the recorded logD at 3 h for this entry: O=C(NC1N=C(c2ccccc2)c2ccccc2NC1=O)c1ccccc1CN1CCn2nccc2C1 (racemic)
3.9

State the recorded logD at 3 h for this entry: O=C(N[C@H]1N=C(c2ccccc2)c2ccccc2NC1=O)c1ccccc1CN1CCOCC1
3.9

State the recorded logD at 3 h for this entry: O=C(NC1N=C(c2ccccc2)c2ccccc2NC1=O)c1sccc1CN1CCOCC1 (racemic)
3.3

State the recorded logD at 3 h for this entry: CC1(C)CN(Cc2ccccc2C(=O)NC2N=C(c3ccccc3)c3ccccc3NC2=O)CCO1 (racemic)
4.3

State the recorded logD at 3 h for this entry: COCCNC(=O)c1ccc2c(c1)NC(=O)[C@@H](NC(=O)c1ccccc1CN1CCO[C@@H](C)C1)N=C2c1ccccc1
3.7

State the recorded logD at 3 h for this entry: C[C@@H]1CN(Cc2ccccc2C(=O)NC2N=C(c3ccccc3)c3ccccc3NC2=O)C[C@H](C)O1 (mixture of isomers)
4.3

* * *

- Study system: E3 ubiquitin-protein ligase CBL-B (Homo sapiens, UniProt Q13191)
- Sequence (Q13191 whole entry): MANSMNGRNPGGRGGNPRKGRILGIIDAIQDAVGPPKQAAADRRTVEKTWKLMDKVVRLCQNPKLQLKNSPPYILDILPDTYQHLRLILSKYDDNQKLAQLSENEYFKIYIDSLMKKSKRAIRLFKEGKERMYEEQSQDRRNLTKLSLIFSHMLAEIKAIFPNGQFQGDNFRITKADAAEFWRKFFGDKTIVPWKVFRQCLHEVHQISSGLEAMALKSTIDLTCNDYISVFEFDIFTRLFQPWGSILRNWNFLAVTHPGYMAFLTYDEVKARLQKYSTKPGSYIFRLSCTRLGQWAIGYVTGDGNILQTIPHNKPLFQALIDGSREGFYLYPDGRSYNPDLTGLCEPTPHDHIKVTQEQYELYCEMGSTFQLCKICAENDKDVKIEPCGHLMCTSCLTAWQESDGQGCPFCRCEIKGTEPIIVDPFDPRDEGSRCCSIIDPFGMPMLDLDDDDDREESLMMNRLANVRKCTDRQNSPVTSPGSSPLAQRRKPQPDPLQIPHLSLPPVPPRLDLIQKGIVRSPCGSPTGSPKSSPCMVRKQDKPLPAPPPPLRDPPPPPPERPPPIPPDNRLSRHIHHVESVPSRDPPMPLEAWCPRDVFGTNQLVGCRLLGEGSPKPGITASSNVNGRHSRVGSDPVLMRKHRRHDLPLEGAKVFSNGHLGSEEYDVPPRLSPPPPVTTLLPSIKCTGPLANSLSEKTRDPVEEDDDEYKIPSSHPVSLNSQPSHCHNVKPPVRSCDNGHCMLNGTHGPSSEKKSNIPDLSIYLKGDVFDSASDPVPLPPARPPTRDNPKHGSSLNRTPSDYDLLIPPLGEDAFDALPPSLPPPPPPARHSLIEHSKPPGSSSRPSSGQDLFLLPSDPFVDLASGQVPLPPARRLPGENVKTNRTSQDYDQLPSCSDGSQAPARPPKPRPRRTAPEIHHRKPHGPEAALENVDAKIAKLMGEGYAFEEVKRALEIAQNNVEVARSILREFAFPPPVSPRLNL
- Procedure summary: Displacement of FAM-labeled probe from recombinant biotinylated Cbl-b (unknown origin) expressed in Escherichia coli BL21(DE3) Tuner cells by TR-FRET assay
IC50 strictly less than 400 nM = Satisfied. Otherwise Not satisfied.

Confirm or reject: IC50 of COCCNC(=O)c1ccc2c(c1)NC(=O)[C@@H](NC(=O)c1ccccc1CN1CCO[C@@H](C)C1)N=C2c1ccccc1 lies strictly below 400 nM
Satisfied

Confirm or reject: IC50 of O=C(NC1N=C(c2ccccc2)c2ccccc2NC1=O)c1cnccc1CN1CCOCC1 (racemic) lies strictly below 400 nM
Not satisfied

Confirm or reject: IC50 of O=C(NC1N=C(c2ccccc2)c2ccccc2NC1=O)c1ccccc1CN1CCOCC1 (racemic) lies strictly below 400 nM
Satisfied

Confirm or reject: IC50 of Cn1ncc2c1CN(Cc1ccccc1C(=O)NC1N=C(c3ccccc3)c3ccccc3NC1=O)C2 (racemic) lies strictly below 400 nM
Satisfied

Confirm or reject: IC50 of O=C(NC1N=C(c2ccccc2)c2ccccc2NC1=O)c1ccccc1N1CCOCC1 (racemic) lies strictly below 400 nM
Not satisfied

Confirm or reject: IC50 of C[C@@H]1CN(Cc2ccccc2C(=O)NC2N=C(c3ccccc3)c3ccccc3NC2=O)CCO1 (mixture of isomers) lies strictly below 400 nM
Satisfied

Confirm or reject: IC50 of C[C@@H]1CN(Cc2ccccc2C(=O)NC2N=C(c3ccccc3)c3ccccc3NC2=O)C[C@H](C)O1 (mixture of isomers) lies strictly below 400 nM
Not satisfied

Confirm or reject: IC50 of O=C(NC1N=C(c2ccccc2)c2ccccc2NC1=O)c1ccccc1CN1CCn2nccc2C1 (racemic) lies strictly below 400 nM
Not satisfied

Confirm or reject: IC50 of C[C@H]1CN(Cc2ccccc2C(=O)N[C@H]2N=C(c3ccccc3)c3ccncc3NC2=O)CCO1 lies strictly below 400 nM
Satisfied

Confirm or reject: IC50 of O=C(NC1N=C(c2ccccc2)c2ccccc2NC1=O)c1ccoc1CN1CCOCC1 (racemic) lies strictly below 400 nM
Not satisfied

Confirm or reject: IC50 of C[C@H]1CCCN(Cc2cc3c(c(C(F)(F)F)c2)CN(c2cccc([C@]4(c5nncn5C)C[C@@H](C)C4)c2)C3=O)C1 lies strictly below 400 nM
Satisfied

Confirm or reject: IC50 of CC1(C)CN(Cc2ccccc2C(=O)NC2N=C(c3ccccc3)c3ccccc3NC2=O)CCO1 (racemic) lies strictly below 400 nM
Not satisfied

Confirm or reject: IC50 of C[C@H]1CN(Cc2ccccc2C(=O)N[C@H]2N=C(c3ccccc3)c3ccccc3NC2=O)CCO1 lies strictly below 400 nM
Satisfied

Confirm or reject: IC50 of C[C@H]1CN(Cc2ccccc2C(=O)NC2N=C(c3ccccc3)c3ccccc3NC2=O)CCO1 (mixture of isomers) lies strictly below 400 nM
Satisfied

Confirm or reject: IC50 of O=C(NC1N=C(c2cc[nH]c(=O)c2)c2ccccc2NC1=O)c1ccccc1CN1CCOCC1 (racemic) lies strictly below 400 nM
Not satisfied

Confirm or reject: IC50 of C[C@@H]1COCCN1Cc1ccccc1C(=O)NC1N=C(c2ccccc2)c2ccccc2NC1=O (mixture of isomers) lies strictly below 400 nM
Not satisfied

Confirm or reject: IC50 of O=C(NC1N=C(c2ccc[nH]c2=O)c2ccccc2NC1=O)c1ccccc1CN1CCOCC1 (racemic) lies strictly below 400 nM
Not satisfied

Confirm or reject: IC50 of C[C@H]1CN(Cc2ccccc2C(=O)N[C@H]2N=C(c3ccccc3)c3ccc(C(=O)N4CCN(C)C(=O)C4)cc3NC2=O)CCO1 lies strictly below 400 nM
Satisfied

Confirm or reject: IC50 of O=C(NC1N=C(c2ccccc2)c2ccccc2NC1=O)c1ccccc1CN1CCn2nncc2C1 (racemic) lies strictly below 400 nM
Satisfied

Confirm or reject: IC50 of O=C(NC1N=C(c2ccncc2)c2ccccc2NC1=O)c1ccccc1CN1CCOCC1 (racemic) lies strictly below 400 nM
Not satisfied

Confirm or reject: IC50 of C[C@H]1COCCN1Cc1ccccc1C(=O)NC1N=C(c2ccccc2)c2ccccc2NC1=O (mixture of isomers) lies strictly below 400 nM
Not satisfied

Confirm or reject: IC50 of O=C(N[C@H]1N=C(c2ccccc2)c2ccccc2NC1=O)c1ccccc1CN1CCOCC1 lies strictly below 400 nM
Satisfied

Confirm or reject: IC50 of C[C@@H]1CN(Cc2ccccc2C(=O)N[C@H]2N=C(c3ccccc3)c3ccccc3NC2=O)CCO1 lies strictly below 400 nM
Satisfied

Confirm or reject: IC50 of O=C(NC1N=C(c2ccccc2)c2ccccc2NC1=O)c1sccc1CN1CCOCC1 (racemic) lies strictly below 400 nM
Satisfied

Confirm or reject: IC50 of O=C(N[C@@H]1N=C(c2ccccc2)c2ccccc2NC1=O)c1ccccc1CN1CCOCC1 lies strictly below 400 nM
Not satisfied

Confirm or reject: IC50 of O=C(NC1N=C(c2ccccc2)c2ccccc2NC1=O)c1ccccc1CN1CCCCC1 (racemic) lies strictly below 400 nM
Not satisfied
